target: human MC3R (human, UniProt P41968 1-323); test: cell-based or functional assay
Sequence (P41968 whole entry): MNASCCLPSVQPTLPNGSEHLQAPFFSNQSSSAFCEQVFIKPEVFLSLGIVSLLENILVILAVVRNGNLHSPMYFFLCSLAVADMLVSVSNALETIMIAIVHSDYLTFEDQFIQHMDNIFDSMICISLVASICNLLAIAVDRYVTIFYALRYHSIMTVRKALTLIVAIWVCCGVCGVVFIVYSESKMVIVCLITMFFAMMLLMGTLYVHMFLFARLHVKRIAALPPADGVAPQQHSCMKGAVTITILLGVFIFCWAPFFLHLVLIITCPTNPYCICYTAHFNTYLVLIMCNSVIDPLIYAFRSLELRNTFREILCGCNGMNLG
Non-standard residues stand in square brackets, D forms with d. 2Nal = N[C@@H](Cc1ccc2ccccc2c1)C(=O)O; Nle = CCCC[C@H](N)C(=O)O

binder	MC3R cAMP (EC50)
Ac-[Nle][dA]H[2Nal]R[dW]DRFG-OH (SMILES CCCC[C@H](NC(C)=O)C(=O)N[C@H](C)C(=O)N[C@@H](Cc1c[nH]cn1)C(=O)N[C@@H](Cc1ccc2ccccc2c1)C(=O)N[C@@H](CCCNC(=N)N)C(=O)N[C@H](Cc1c[nH]c2ccccc12)C(=O)N[C@@H](CC(=O)O)C(=O)N[C@@H](CCCNC(=N)N)C(=O)N[C@@H](Cc1ccccc1)C(=O)NCC(=O)O) [CTX-1512]	13.1 nM
Ac-[Nle][dA]HFR[dW]-NH2 [CTX-1539]	47.1 nM
